- Read-out: NAD(P)H dehydrogenase [quinone] 1 (NQO1), NQO1 (gene 1728)
- procedureSummary: LTEA_HepaRG_NQO1: Life Technologies and Expression Analysis (LTEA) Assay for NAD(P)H dehydrogenase [quinone] 1 (NQO1) using HepaRG (AID 2283526)
- assayContext: mRNA level, 48 h; actives raise or lower the signal
The source made the active and inactive calls. The calls were made as follows: active = hit-call score of the fitted dose curve at least 0.9, where 1 is the maximum; inactive = score below 0.9.
Respond only with the outcome that fits, drawn from active, inactive

Exam item: What outcome does the record of this test show for COc1nn(CSP(=S)(OC)OC)c(=O)s1 ?
Marked response: inactive

Exam item: What outcome does the record of this test show for CC1(c2ccc(Oc3ccccc3)cc2)OC(=O)N(Nc2ccccc2)C1=O (centres undefined) ?
Marked response: active

Exam item: What outcome does the record of this test show for OCCOc1ccccc1 ?
Marked response: inactive

Exam item: What outcome does the record of this test show for Clc1ccccc1-c1nnc(-c2ccccc2Cl)nn1 ?
Marked response: inactive

Exam item: What outcome does the record of this test show for C[C@H]1[C@H](c2ccc(Cl)cc2)SC(=O)N1C(=O)NC1CCCCC1 ?
Marked response: inactive

Exam item: What outcome does the record of this test show for Oc1ccc(Cl)cc1Cc1ccccc1 ?
Marked response: inactive

Exam item: What outcome does the record of this test show for CC(C)(C)C(O)/C(=C\c1ccc(Cl)cc1Cl)n1cncn1 (centres undefined) ?
Marked response: inactive

Exam item: What outcome does the record of this test show for Oc1cc(Cl)ccc1Oc1ccc(Cl)cc1Cl ?
Marked response: inactive

Exam item: What outcome does the record of this test show for C#CCN1C(=O)COc2cc(F)c(N3C(=O)C4=C(CCCC4)C3=O)cc21 ?
Marked response: inactive

Exam item: What outcome does the record of this test show for CCCN(CCC)c1c([N+](=O)[O-])cc(C(F)(F)F)cc1[N+](=O)[O-] ?
Marked response: inactive

Exam item: What outcome does the record of this test show for CC(C)N(C(=O)COc1nnc(C(F)(F)F)s1)c1ccc(F)cc1 ?
Marked response: inactive

Exam item: What outcome does the record of this test show for COP(=O)(OC)OC=C(Cl)Cl ?
Marked response: inactive

Exam item: What outcome does the record of this test show for O=S1OCC2C(CO1)C1(Cl)C(Cl)=C(Cl)C2(Cl)C1(Cl)Cl (centres undefined) ?
Marked response: inactive

Exam item: What outcome does the record of this test show for CCC(C)Nc1c([N+](=O)[O-])cc(C(C)(C)C)cc1[N+](=O)[O-] (centres undefined) ?
Marked response: inactive

* * *

- procedureSummary: APR_HepG2_CellLoss_72hr: Apredica 72-hour HepG2 Assay for Cell Loss (AID 2282915)
- assayContext: high-content imaging
Active and inactive are the calls of the source. How the source made its calls: active means hit-call score of the fitted dose curve at least 0.9, where 1 is the maximum; inactive means score below 0.9.
Respond only with the outcome that fits, drawn from active, inactive

Exam item: What outcome does the record of this test show for CCCN(CCOc1c(Cl)cc(Cl)cc1Cl)C(=O)n1ccnc1 ?
Marked response: active

Exam item: What outcome does the record of this test show for CC(C)(C)C(O)/C(=C\c1ccc(Cl)cc1Cl)n1cncn1 (stereo not drawn) ?
Marked response: active

Exam item: What outcome does the record of this test show for CCS(=O)(=O)c1cccnc1S(=O)(=O)NC(=O)Nc1nc(OC)cc(OC)n1 ?
Marked response: inactive

* * *

- procedureSummary: STM_H9_OrnithineISnorm_perc: Stemina devTOX quickPredict H9 human embryonic stem cell (hESC)-based Assay for Ornithine (ORN) Metabolite Biomarker, Normalized (AID 2283712);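 also: ornithine released into spent medium during last day measured by mass spectrometry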
The source made the active and inactive calls. How the source made its calls: active means hit-call score of the fitted dose curve at least 0.9, where 1 is the maximum; inactive means score below 0.9.
Respond only with the outcome that fits, drawn from YES for active, NO for inactive

Exam item: What outcome does the record of this test show for CCOC1Oc2ccc(OS(C)(=O)=O)cc2C1(C)C (centres undefined) ?
Marked response: YES

Exam item: What outcome does the record of this test show for Oc1cc(Cl)ccc1Oc1ccc(Cl)cc1Cl ?
Marked response: YES

Exam item: What outcome does the record of this test show for CC1(C)C(C=C(Cl)Cl)C1C(=O)OC(C#N)c1ccc(F)c(Oc2ccccc2)c1 (centres undefined) ?
Marked response: NO

Exam item: What outcome does the record of this test show for CCOCN(C(=O)CCl)c1c(C)cccc1CC ?
Marked response: NO

Exam item: What outcome does the record of this test show for CC1(c2ccc(Oc3ccccc3)cc2)OC(=O)N(Nc2ccccc2)C1=O (centres undefined) ?
Marked response: YES

Exam item: What outcome does the record of this test show for CCC(C)(NC(=O)c1cc(Cl)c(C)c(Cl)c1)C(=O)CCl (centres undefined) ?
Marked response: YES

Exam item: What outcome does the record of this test show for CC(C)(C)C(O)C(Oc1ccc(Cl)cc1)n1cncn1 (centres undefined) ?
Marked response: NO

Exam item: What outcome does the record of this test show for Cc1[nH]c(=O)n(C(C)(C)C)c(=O)c1Cl ?
Marked response: NO

Exam item: What outcome does the record of this test show for O=S(=O)(O)C(F)(F)C(F)(F)C(F)(F)C(F)(F)C(F)(F)C(F)(F)C(F)(F)C(F)(F)F ?
Marked response: NO
